Biological target: T1, human CD166 protein (human) (UniProt Q13740)
T1 sequence (looked up): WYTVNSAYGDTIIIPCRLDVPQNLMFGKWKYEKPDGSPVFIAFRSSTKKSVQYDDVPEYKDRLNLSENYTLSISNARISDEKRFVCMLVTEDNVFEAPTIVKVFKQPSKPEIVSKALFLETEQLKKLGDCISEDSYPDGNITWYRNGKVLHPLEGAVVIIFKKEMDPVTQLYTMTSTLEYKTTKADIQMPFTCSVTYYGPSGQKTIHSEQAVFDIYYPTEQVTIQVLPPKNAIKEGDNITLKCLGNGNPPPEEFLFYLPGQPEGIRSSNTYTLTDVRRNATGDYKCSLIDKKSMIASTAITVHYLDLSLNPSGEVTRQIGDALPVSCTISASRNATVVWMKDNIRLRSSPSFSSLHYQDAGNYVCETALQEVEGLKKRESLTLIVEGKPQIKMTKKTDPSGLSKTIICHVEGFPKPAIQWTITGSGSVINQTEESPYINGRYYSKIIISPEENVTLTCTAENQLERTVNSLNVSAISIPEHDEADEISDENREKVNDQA
Experiment: ELISA; relative to parental CD166 M9 vk1/HcB
readout name: Fold Increase in Kd (fold)
Answer format: numeric, fold implied, no suffix.

Use these answered entries as a reference point.
CD166-16522.19-2001 (antibody, part only; not given: linkers and constant regions, V domains shown, not shown: small tags and cut ends) VH: QITLKESGPTLVKPTQTLTLTCTFSGFSLSTYGMGVGWIRQPPGKALEWLANIWWSEDKHYSPSLKSRLTITKDTSKNQVVLTMTNMDPVDTATYYCVQIDYGNDYAFTYWGQGTLVTVSS VL, part: LEGWCLHPLCAWGAGISSGLLSGRSDNHDIVMTQSPLSLPVTPGEPASISCRSSKSLLHSNGITYLYWYLQKPGQSPQLLIYQMSNLASGVPDRFSGSGSGTDFTLKISRVEAEDVGVYYCAQNLELPYTFGQGTKLEIK : 11
CD166-16522.18-2001 (antibody, part only; not given: linkers and constant regions, V domains shown, not shown: small tags and cut ends) VH: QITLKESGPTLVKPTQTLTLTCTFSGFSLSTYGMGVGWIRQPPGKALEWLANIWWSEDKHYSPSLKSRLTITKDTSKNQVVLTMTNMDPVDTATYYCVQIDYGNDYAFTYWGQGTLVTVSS VL, part: LEGWCLHPACLWGAGISSGLLSGRSDNHDIVMTQSPLSLPVTPGEPASISCRSSKSLLHSNGITYLYWYLQKPGQSPQLLIYQMSNLASGVPDRFSGSGSGTDFTLKISRVEAEDVGVYYCAQNLELPYTFGQGTKLEIK : 13

Would you kindly look at the next entry?
So what does the record say about Fold Increase in Kd for CD166-16522.20-2001 (antibody, part only; not given: linkers and constant regions, V domains shown, not shown: small tags and cut ends) VH: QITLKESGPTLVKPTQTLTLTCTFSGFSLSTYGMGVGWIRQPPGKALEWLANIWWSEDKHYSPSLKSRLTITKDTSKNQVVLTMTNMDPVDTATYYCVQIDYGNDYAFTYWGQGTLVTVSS VL, part: LEGWCLHPLCLAGAGISSGLLSGRSDNHDIVMTQSPLSLPVTPGEPASISCRSSKSLLHSNGITYLYWYLQKPGQSPQLLIYQMSNLASGVPDRFSGSGSGTDFTLKISRVEAEDVGVYYCAQNLELPYTFGQGTKLEIK ?
158
